reported.property: melting point

# compound, melting point
measured = [
    ("CC(C)CCOc1c(-c2ccc(S(N)(=O)=O)cc2)cnn(C(C)(C)C)c1=O", "153 to 155 °C"),
    ("CCCCCC(C=CC1C(O[Si](C)(C)C(C)(C)C)CC2Cc3c(cccc3OC(=O)c3ccccc3)CC21)O[Si](C)(C)C(C)(C)C (stereo not given)", "140 to 141 °C"),
    ("CCCOc1ccc(Br)cc1-c1nc2c(CCC)nn(C)c2c(=O)[nH]1", "117 to 118 °C"),
    ("CC1(C)OC(=O)Nc2ccc(-c3ccc(F)c(C#N)c3)cc21", "255 to 256 °C"),
    ("O=C(N[C@@H](Cc1ccccc1)C(=O)O)C(CS)C(F)(F)F (stereo not given in full)", "133 to 134 °C"),
]

Entry O=C(N[C@H]1CN2CCC1CC2)C(O)(c1ccccc1)C1CCCC1 (stereo not given in full) needs its melting point filled in; supply it.
69.8 to 73.3 °C

Note melting point for the compound shown: `C[C@H](NC(=O)OC(C)(C)C)[C@@H]1CCN(c2nc3c(cc2F)c(=O)[nH]c(=O)n3C2CC2)C1`
249 to 251 °C

Quote melting point reported for `CCN(CC)Cc1nn2cc(-c3ccccc3)nc2s1` please.
138 °C

----------
melting point reference

A selection of reference data follows.
# compound, reported.property, recorded.result
measured = [
    ("O=C1NC(Cc2c[nH]c3ccccc23)C(=O)N1CCCN1CCC(c2ccccc2)CC1 (stereo not given)", "melting point", "179 to 180 °C"),
    ("Nc1ccc(-c2nc3cc(N)ccc3o2)cc1", "melting point", "226 to 228 °C"),
    ("Cn1c2ccc(Br)cc2c2sccc(=O)c21", "melting point", "243 to 244 °C"),
    ("O=c1[nH]ncc2[nH]c(-c3ccc(OC(F)F)c(OC4CC4)c3)c(CC3CC3)c12", "melting point", "204 to 206 °C"),
    ("CN(c1cccc2cc(-c3ncc(CCC#N)s3)[nH]c12)S(=O)(=O)c1cccs1", "melting point", "207 to 208 °C"),
]

Fill in reported melting point for this entry: `COc1cc2ncnc(N3CCN(C(=O)NCc4cccs4)CC3)c2cc1OC`
168 to 170 °C

In one line, give reported melting point of the entry `CN1CCN(c2ccc(/C=C/c3cc(/C=C/c4ccc5cc[nH]c5c4)[nH]n3)cc2)CC1` .
192 to 198 °C

# return recorded melting point for input `COCc1cnc2c(NC(=O)c3c(Cl)cccc3Cl)ccc(C)c2c1Cl`
180 °C

Give melting point for CS(=O)(=O)c1ccc(C(CC2CCCC2)C(=O)Nc2nc3ccccc3[nH]2)cc1C#N (stereo not given)
148 to 152 °C

Indicate its recorded melting point; the compound in question is `NS(=O)(=O)c1cc2cc(N3CCOCC3)ccc2s1`
155 to 156 °C

Specify reported melting point for the compound shown: `CC1=C(C(=O)OC(C)(C)C)C(c2cccc(Cl)c2Cl)C(C(=O)OC(C)(C)C)=C(C)N1`
144 to 145 °C

----------
reported.property: melting point

Illustrative cases are given below, each with its answer.
# compound, melting point
data = [
    ("CC1(C)CC(=O)Nc2cc3nc(-c4cc5ccccc5[nH]4)[nH]c3cc21", "264 to 267 °C"),
    ("CN(C)c1ccc([PH](=O)c2ccc(N(C)C)cc2)cc1", "152 °C"),
    ("COc1ccc(-c2ccc3c(c2)CCc2nn(-c4ccccn4)c(O)c2-3)cc1", "159 to 160 °C"),
]

Note melting point for the compound shown: `CNC(=O)c1cccc(NC(=O)Cc2cccc3sccc23)c1`
192 °C

Input `Cc1nc(C(F)(F)F)ccc1C(=O)Nc1ccccc1` , output reported melting point.
161 °C

Provide one value: measured melting point of Nc1c(C(=O)NC(Cc2ccc(OCc3ccccc3)cc2)C(=O)O)oc2cc(-c3ccc(Cl)cc3)ccc12 (stereo unspecified)
250 °C

Read off the recorded melting point for `Cc1ccc(-c2cc3ccccc3[nH]2)cc1`
213 to 215 °C

# return recorded melting point for input `CCc1cc(OC)c(S(C)(=O)=O)cc1C(=O)N=C(N)N`
192 to 195 °C

Quote melting point reported for `COc1ncncc1[N+](=O)[O-]` please.
193 to 195 °C

Identify measured melting point corresponding to `Cc1cccc2cc3c(=O)n(CCCN4CCCC4=O)cc(C(=O)NCCN(C)C)c3nc12`
170 to 171 °C

Using the record for CC(=O)NCCC1CCCc2ccc(O)cc21 (stereo unspecified) , state its measured melting point.
153 to 155 °C
